The measured values listed here are drawn from paper PMC9476207.

Kindly supply the reported activity at 10 µM values for the records listed here.
system: 786-0; experiment: NCI-60 single-dose antiproliferative screen; type: cell-based; settings: Homo sapiens, 786-0, 48 h, read-out: growth percent
Express it in %; write the number only.

activity at 10 µM reported for this molecule COc1cc(CNC(=O)CCCC/C=C/C(C)C)ccc1OCc1cn(-c2ccc(Cl)cc2)nn1 [14a] : 92.5

molecule COc1cc(CNC(=O)C[C@H](C)CCC=C(C)C)ccc1OCc1cn(-c2ccc(Cl)cc2)nn1 [18b] , activity at 10 µM observed: 84.3

Memo: COc1cc(CNC(=O)CCCC/C=C/C(C)C)ccc1OCc1cn(-c2ccc(Br)cc2)nn1 [14k] , reported activity at 10 µM: 92

What the record says about COc1cc(CNC(=O)CCCC/C=C/C(C)C)ccc1OCc1cn(-c2ccc(C(F)(F)F)cc2)nn1 [14g] : activity at 10 µM is 2.94

Kindly note the recorded activity at 10 µM for CCc1ccc(-n2cc(COc3ccc(CNC(=O)CCCC/C=C/C(C)C)cc3OC)nn2)cc1 [14o] , which is 100

Per the record, COc1cc(CNC(=O)CCCC/C=C/C(C)C)ccc1OCc1cn(-c2cccc(Cl)c2)nn1 [14b] has activity at 10 µM of 76.8

Entry COc1cc(CNC(=O)CCCC/C=C/C(C)C)ccc1OCc1cn(-c2ccccc2F)nn1 [14i] ; activity at 10 µM = 97.2

# activity at 10 µM of COc1cc(CNC(=O)CCCC/C=C/C(C)C)ccc1OCc1cn(-c2ccccc2Cl)nn1 [14c] = 93.8

// sample COc1cc(CNC(=O)CCCC/C=C/C(C)C)ccc1OCc1cn(-c2ccccc2OC)nn1 [14l] , its activity at 10 µM was 102

Lookup result for COc1cc(CNC(=O)CCCC/C=C/C(C)C)ccc1OCc1cn(-c2cc(OC)c(OC)c(OC)c2)nn1 [14m] ; measured activity at 10 µM: 108

get_value(item= COc1cc(CNC(=O)CCCC/C=C/C(C)C)ccc1OCc1cn(-c2ccc(Cl)c(Cl)c2)nn1 [14d] , readout=activity at 10 µM) returns 96.3

According to the records, this molecule COc1cc(CNC(=O)CCCC/C=C/C(C)C)ccc1OCc1cn(-c2ccc(C)cc2)nn1 [14n] displays activity at 10 µM of 99.6

// field: activity at 10 µM; key: COc1cc(CNC(=O)CCCC/C=C/C(C)C)ccc1OCc1cn(-c2ccc([N+](=O)[O-])cc2)nn1 [14e] ; value = 93.7

Per the records, this molecule ( COc1cc(CNC(=O)CCCC/C=C/C(C)C)ccc1OCc1cn(-c2ccc(F)cc2)nn1 [14h] ) has activity at 10 µM equal to 83.7

Record COc1cc(CNC(=O)CCCC/C=C/C(C)C)ccc1OCc1cn(-c2cccc([N+](=O)[O-])c2)nn1 [14f] , field activity at 10 µM: 73.4

For COc1cc(CNC(=O)CCCC/C=C/C(C)C)ccc1OCc1cn(-c2ccc(C)c(C)c2)nn1 [14p] the molecule record lists activity at 10 µM as 99.8

Short answer for COc1cc(CNC(=O)CCCC/C=C/C(C)C)ccc1OCc1cn(-c2ccc(C#N)cc2)nn1 [14j] : activity at 10 µM was 91.7

###

tested on: SW-620; assay: NCI-60 single-dose antiproliferative screen; format: cell-based; details: Homo sapiens, SW-620, 48 h, read-out: growth percent
quantity: activity at 10 µM (%)
// units = %; emit number, no label

Per the record, COc1cc(CNC(=O)CCCC/C=C/C(C)C)ccc1OCc1cn(-c2cccc([N+](=O)[O-])c2)nn1 [14f] has activity at 10 µM of 97.4

# activity at 10 µM of COc1cc(CNC(=O)CCCC/C=C/C(C)C)ccc1OCc1cn(-c2ccc(F)cc2)nn1 [14h] = 91

activity at 10 µM in this record for COc1cc(CNC(=O)CCCC/C=C/C(C)C)ccc1OCc1cn(-c2ccccc2F)nn1 [14i] : 98.1

Lab note: COc1cc(CNC(=O)CCCC/C=C/C(C)C)ccc1OCc1cn(-c2ccc(C)cc2)nn1 [14n] gave activity at 10 µM of 102

activity at 10 µM measured on COc1cc(CNC(=O)CCCC/C=C/C(C)C)ccc1OCc1cn(-c2cc(OC)c(OC)c(OC)c2)nn1 [14m] = 102

Just so you know, measured activity at 10 µM for COc1cc(CNC(=O)CCCC/C=C/C(C)C)ccc1OCc1cn(-c2ccc(Br)cc2)nn1 [14k] came out at 94.7

activity at 10 µM measured on COc1cc(CNC(=O)CCCC/C=C/C(C)C)ccc1OCc1cn(-c2ccc(Cl)cc2)nn1 [14a] = 88.7

Input COc1cc(CNC(=O)CCCC/C=C/C(C)C)ccc1OCc1cn(-c2ccccc2Cl)nn1 [14c] . Output activity at 10 µM: 100

###

Please provide measured activity at 10 µM for the entries that follow.
system: NCI-H23; assay: NCI-60 single-dose antiproliferative screen; format: cell-based; conditions: Homo sapiens, NCI-H23, 48 h, read-out: growth percent
# unit: % | format: bare number

Tested on NCI-H23: COc1cc(CNC(=O)CCCC/C=C/C(C)C)ccc1OCc1cn(-c2ccc(C)c(C)c2)nn1 [14p] . Observed activity at 10 µM: 74.9

For COc1cc(CNC(=O)CCCC/C=C/C(C)C)ccc1OCc1cn(-c2ccc(Br)cc2)nn1 [14k] on NCI-H23, measured activity at 10 µM was 70.2

Entry COc1cc(CNC(=O)CCCC/C=C/C(C)C)ccc1OCc1cn(-c2ccccc2F)nn1 [14i] : activity at 10 µM on NCI-H23 = 95.3

# value of activity at 10 µM, NCI-H23, item COc1cc(CNC(=O)CCCC/C=C/C(C)C)ccc1OCc1cn(-c2ccc(C)cc2)nn1 [14n] = 87.9

Note to self: activity at 10 µM of COc1cc(CNC(=O)CCCC/C=C/C(C)C)ccc1OCc1cn(-c2cccc([N+](=O)[O-])c2)nn1 [14f] with NCI-H23 was 88

The recorded activity at 10 µM with NCI-H23 for COc1cc(CNC(=O)CCCC/C=C/C(C)C)ccc1OCc1cn(-c2ccccc2OC)nn1 [14l] was 96

Case COc1cc(CNC(=O)CCCC/C=C/C(C)C)ccc1OCc1cn(-c2ccc(Cl)cc2)nn1 [14a] , NCI-H23, activity at 10 µM recorded as 78.7

Entry COc1cc(CNC(=O)CCCC/C=C/C(C)C)ccc1OCc1cn(-c2cc(OC)c(OC)c(OC)c2)nn1 [14m] , NCI-H23 data, activity at 10 µM value: 90.1

For the compound COc1cc(CNC(=O)CCCC/C=C/C(C)C)ccc1OCc1cn(-c2ccccc2Cl)nn1 [14c] , the measured activity at 10 µM on NCI-H23 was 93.6

# COc1cc(CNC(=O)C[C@H](C)CCC=C(C)C)ccc1OCc1cn(-c2ccc(Cl)cc2)nn1 [18b] with NCI-H23: activity at 10 µM is 64.9

Item: CCc1ccc(-n2cc(COc3ccc(CNC(=O)CCCC/C=C/C(C)C)cc3OC)nn2)cc1 [14o] | System: NCI-H23 | activity at 10 µM: 89.5

Per the reported NCI-H23 data, COc1cc(CNC(=O)CCCC/C=C/C(C)C)ccc1OCc1cn(-c2ccc(F)cc2)nn1 [14h] has activity at 10 µM of 81.4

# lookup: COc1cc(CNC(=O)CCCC/C=C/C(C)C)ccc1OCc1cn(-c2ccc(Cl)c(Cl)c2)nn1 [14d] on NCI-H23, activity at 10 µM = 93.2

Reading of activity at 10 µM for COc1cc(CNC(=O)CCCC/C=C/C(C)C)ccc1OCc1cn(-c2ccc(C(F)(F)F)cc2)nn1 [14g] with NCI-H23: 94.6

GET /values?item= COc1cc(CNC(=O)CCCC/C=C/C(C)C)ccc1OCc1cn(-c2ccc([N+](=O)[O-])cc2)nn1 [14e] &system= NCI-H23 returns activity at 10 µM: 83.2

// activity at 10 µM (NCI-H23) for COc1cc(CNC(=O)CCCC/C=C/C(C)C)ccc1OCc1cn(-c2cccc(Cl)c2)nn1 [14b] = 87.2

Item COc1cc(CNC(=O)CCCC/C=C/C(C)C)ccc1OCc1cn(-c2ccc(C#N)cc2)nn1 [14j] was tested on NCI-H23; the reported activity at 10 µM is 72.1

###

tested on: SK-MEL-28; experiment: NCI-60 single-dose antiproliferative screen; format: cell-based; conditions: Homo sapiens, SK-MEL-28, 48 h, read-out: growth percent
Assignment: determine reported activity at 10 µM for the given compounds.
Report the value in % with no unit label.

Kindly note the recorded activity at 10 µM for COc1cc(CNC(=O)CCCC/C=C/C(C)C)ccc1OCc1cn(-c2ccc([N+](=O)[O-])cc2)nn1 [14e] , which is 102

# activity at 10 µM of COc1cc(CNC(=O)CCCC/C=C/C(C)C)ccc1OCc1cn(-c2cc(OC)c(OC)c(OC)c2)nn1 [14m] = 108

Measured activity at 10 µM, COc1cc(CNC(=O)CCCC/C=C/C(C)C)ccc1OCc1cn(-c2ccc(C)c(C)c2)nn1 [14p] : 112

response.value for COc1cc(CNC(=O)CCCC/C=C/C(C)C)ccc1OCc1cn(-c2ccccc2F)nn1 [14i] (field: activity at 10 µM) = 107

activity at 10 µM measured on COc1cc(CNC(=O)C[C@H](C)CCC=C(C)C)ccc1OCc1cn(-c2ccc(Cl)cc2)nn1 [18b] = 87
